# Test target: T1, human CD28 (human, UniProt P10747 19-220)
# T1 construct: whole, on cells; Jurkat/IL2 reporter cells, which endogenously express CD28
# Protocol summary: flow cytometry, Jurkat/IL2 reporter cells (endogenous CD28), 33.3 nM Fc fusion, PE anti-human Fc
Listed next: entries and their corresponding MFI at 33.3 nM.

- Binder: "variant CD80 IgV-Fc (inert) H18T/A26N/E35D/M47L/V68M/A71G (Fc fusion, not shown: inert human IgG1 Fc) VIHVTKEVKEVATLSCGTNVSVEELNQTRIYWQKDKKMVLTMMSGDLNIWPEYKNRTIFDITNNLSIMILGLRPSDEGTYECVVLKYEKDAFKREHLAEVTLSVKAD"
  MFI at 33.3 nM: "1370 MFI"
- Binder: "variant CD80 IgV-Fc (inert) H18L/A26N/D46E/V68M/A71G/D90G (Fc fusion, not shown: inert human IgG1 Fc) VIHVTKEVKEVATLSCGLNVSVEELNQTRIYWQKEKKMVLTMMSGEMNIWPEYKNRTIFDITNNLSIMILGLRPSDEGTYECVVLKYEKGAFKREHLAEVTLSVKAD"
  MFI at 33.3 nM: "7250 MFI"
- Binder: "variant CD80 IgV-Fc (inert) H18F/A26N/E35D/M47V/V68M/A71G/D90K (Fc fusion, not shown: inert human IgG1 Fc) VIHVTKEVKEVATLSCGFNVSVEELNQTRIYWQKDKKMVLTMMSGDVNIWPEYKNRTIFDITNNLSIMILGLRPSDEGTYECVVLKYEKKAFKREHLAEVTLSVKAD"
  MFI at 33.3 nM: "3170 MFI"
- Binder: "variant CD80 IgV-Fc (inert) H18Y/A26P/E35D/M47Y/V68I/A71G/D90G (Fc fusion, not shown: inert human IgG1 Fc) VIHVTKEVKEVATLSCGYNVSVEELPQTRIYWQKDKKMVLTMMSGDYNIWPEYKNRTIFDITNNLSIIILGLRPSDEGTYECVVLKYEKGAFKREHLAEVTLSVKAD"
  MFI at 33.3 nM: "1820 MFI"
